TARGET SYSTEM: NPY Y2 receptor (Homo sapiens, UniProt P49146)
Construct: endogenous in cells; host or cells: KAN-Ts cells (membrane preparation)
Sequence (P49146 1-381): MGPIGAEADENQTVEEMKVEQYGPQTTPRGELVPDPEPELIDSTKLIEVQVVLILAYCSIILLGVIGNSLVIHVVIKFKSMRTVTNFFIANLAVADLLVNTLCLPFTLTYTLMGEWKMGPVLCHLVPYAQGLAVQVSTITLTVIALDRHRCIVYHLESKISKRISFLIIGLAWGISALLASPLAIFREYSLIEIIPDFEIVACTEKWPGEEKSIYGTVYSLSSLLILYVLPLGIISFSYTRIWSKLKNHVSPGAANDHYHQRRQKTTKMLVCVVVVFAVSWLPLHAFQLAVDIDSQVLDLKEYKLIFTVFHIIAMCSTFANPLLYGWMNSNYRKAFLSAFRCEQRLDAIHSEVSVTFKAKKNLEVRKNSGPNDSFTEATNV
PROTOCOL TEXT: Neuropeptide Y2 radioligand binding assay ([125I]PYY, KAN-Ts cell membranes)
TEST PARAMETERS: membranes of KAN-Ts cells endogenously expressing Y2 receptors; [125I]PYY 80 pM; 1 h at rt; read-out: IC50 (μM), NPY Y2 binding
QUANTITY NAME: IC50 (µM)

CCN(CC)C(=O)C(c1ccccc1)N1CCN(c2ccc(C3=N[C@H](C(=O)OC)CO3)cc2F)CC1 (stereo partly shown)
1
CCN(CC)C(=O)C(c1ccccc1)N1CCN(c2ccc(-c3nc(C(C)C)no3)cc2C(N)=O)CC1 (stereo not shown)
2.1
CCN(CC)C(=O)C(c1ccccc1)N1CCN(c2ccc(-c3ccccc3OC)cc2C#N)CC1 (stereo not shown)
0.03
CCN(CC)C(=O)C(c1ccccc1)N1CCN(c2ccc(-c3ccc(Cl)cc3)cc2F)CC1 (stereo not shown)
0.92
CCN(CC)C(=O)C(c1ccccc1)N1CCN(c2ccc(-c3ccc[nH]3)cc2F)CC1 (stereo not shown)
0.63
CCN(CC)C(=O)C(c1ccccc1)N1CCN(c2ccc(-c3nnc(C(C)C)[nH]3)cc2F)CC1 (stereo not shown)
0.83

a = CCN(CC)C(=O)C(c1ccccc1)N1CCN(c2ccc(-c3cc(C)nn3-c3ccccc3)cc2F)CC1 (stereo not shown)
b = Cc1noc(-c2ccc(N3CCN(C(C(=O)N(C)C)c4ccccc4)CC3)c(F)c2)n1 (stereo not shown)
Record comparison, field IC50: mark the lower of a and b . // respond with label for picked entry
a
(a: 0.11 µM, b: 0.56 µM)
